Measured values drawn from patent US10106542B2 for this set.

Entries annotated with measured Emax
Assay System: human mGlu2 receptor (Homo sapiens)
Construct: expressed in transfected cells; host or cells: CHO cells (membrane preparation)
Protocol Details: [35S]GTPγS binding assay (mGluR2 negative allosteric modulation)
Type: biochemical
Measurement Parameters: relative maximal effect: maximal % inhibition relative to the control glutamate response; read-out: GTPγS - hmGluR2 anGT Emax
Readout Kind: Emax (%)

>>> value("COc1ccc(N2C[C@H](C)n3ncc(-c4ccnc(C)c4)c3C2=O)cc1Cl")
104
>>> value("Cc1cc(-c2cnn3c2C(=O)N(c2ccc(OC(F)F)c(Cl)c2)C[C@@H]3C)ccn1")
106
>>> value("Cc1cc(-c2cnn3c2C(=O)N(c2ccc(SC(F)(F)F)cc2)C[C@@H]3C)ccn1")
105
>>> value("CC(C)Oc1cc(-c2cnn3c2C(=O)N(c2ccc(Cl)c(Cl)c2)C[C@@H]3C)ccn1")
107

====

Readout Kind: melting point (°C)

>>> value("CCOc1cc(N2C[C@H](C)n3ncc(-c4ccncc4)c3C2=O)ccc1C(F)(F)F [compound 55]")
104.2
>>> value("Cc1cc(-c2cnn3c2C(=O)N(c2ccc(C(F)(F)F)cc2)C[C@@H]3C)cc[n+]1[O-] [compound 140]")
231.5
>>> value("Cc1cc(-c2cnn3c2C(=O)N(c2ccc(C(F)(F)F)cc2)CC3(C)C)ccn1 [compound 171]")
158.8
>>> value("CCOc1ccc(N2C[C@H](C)n3ncc(-c4ccnc(C)c4)c3C2=O)nc1F [compound 191]")
60.7
>>> value("Cc1cc(-c2cnn3c2C(=O)N(c2ccc(C(F)F)cc2)C[C@@H]3C)ccn1 [compound 162]")
185.9

====

Entries annotated with measured IC50
Assay System: human mGlu2 receptor (Homo sapiens, UniProt Q14416)
Construct: expressed in transfected cells; host or cells: CHO cells (membrane preparation)
Sequence (Q14416 19-872): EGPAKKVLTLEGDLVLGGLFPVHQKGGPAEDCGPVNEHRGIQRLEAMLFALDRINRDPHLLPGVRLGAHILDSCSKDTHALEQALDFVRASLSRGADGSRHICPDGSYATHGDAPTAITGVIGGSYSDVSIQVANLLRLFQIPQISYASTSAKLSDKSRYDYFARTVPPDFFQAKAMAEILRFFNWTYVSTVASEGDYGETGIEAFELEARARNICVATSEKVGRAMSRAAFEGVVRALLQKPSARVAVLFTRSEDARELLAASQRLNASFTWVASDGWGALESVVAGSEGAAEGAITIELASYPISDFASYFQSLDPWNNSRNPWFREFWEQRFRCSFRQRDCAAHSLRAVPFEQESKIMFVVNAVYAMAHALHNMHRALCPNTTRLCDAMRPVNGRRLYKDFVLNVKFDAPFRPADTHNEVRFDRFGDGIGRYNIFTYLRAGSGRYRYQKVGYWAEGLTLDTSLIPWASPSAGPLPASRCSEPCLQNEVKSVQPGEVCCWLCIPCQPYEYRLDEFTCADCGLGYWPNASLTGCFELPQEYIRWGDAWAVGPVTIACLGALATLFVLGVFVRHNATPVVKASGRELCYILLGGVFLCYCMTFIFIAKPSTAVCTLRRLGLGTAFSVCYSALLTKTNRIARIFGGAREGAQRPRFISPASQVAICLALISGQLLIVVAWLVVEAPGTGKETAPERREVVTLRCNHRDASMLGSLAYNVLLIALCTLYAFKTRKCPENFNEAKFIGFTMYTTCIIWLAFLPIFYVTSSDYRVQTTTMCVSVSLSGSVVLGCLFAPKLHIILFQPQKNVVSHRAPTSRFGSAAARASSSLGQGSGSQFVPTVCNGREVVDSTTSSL
Protocol Details: [35S]GTPγS binding assay (mGluR2 negative allosteric modulation)
Assay type: biochemical
Measurement Parameters: membranes from CHO cells transfected with human mGlu2 receptor; glutamate 60 μM; pIC50 = −log IC50 (M); read-out: GTPγS - hmGluR2 anGT pIC50 (converted)
Description: 1) [^35S]GTPγS binding assay The [^35S]GTPγS binding assay is a functional membrane-based assay used to study G-protein coupled receptor (GPCR) function whereby incorporation of a non-hydrolysable form of GTP, [^35S]GTPγS (guanosine 5′-triphosphate, labelled with gamma-emitting ^35S), is measured. […] CHO-cells were cultured to pre-confluence and stimulated with 5 mM butyrate for 24 h. […] Protein concentration was determined by the Bradford method (Bio-Rad, USA) with bovine serum albumin as standard. […]
Readout Kind: IC50 (M)

>>> value("C[C@H]1CN(c2ccc(Cl)c(Cl)c2)C(=O)c2c(-c3ccnc(C4CC4)c3)cnn21")
"3.72e-09"
>>> value("Cc1cc(-c2cnn3c2C(=O)N(c2ccc(C(F)(F)F)cn2)C[C@@H]3C)cc(C)n1")
"1.38e-07"
>>> value("Cc1cc(-c2cnn3c2C(=O)N(c2ccc(Cl)c(Cl)c2)C[C@@H]3C)ccn1 [6a]")
"4.79e-09"
>>> value("C[C@H]1CN(c2ccc(C(F)(F)F)cc2)C(=O)c2c(-c3ccnc(C#N)c3)cnn21")
"2.75e-08"
>>> value("Cc1cc(-c2cnn3c2C(=O)N(c2ccc(C(C)C)cc2)C[C@@H]3C)ccn1")
"4.47e-08"
>>> value("CCOc1cc(N2C[C@@H](C)n3ncc(-c4ccnc(C)c4)c3C2=O)ccc1C(F)(F)F")
"4.37e-07"
>>> value("Cc1cc(N2C[C@H](C)n3ncc(-c4ccncc4)c3C2=O)ccc1C(F)(F)F")
"1.45e-08"
>>> value("Cc1cc(-c2cnn3c2C(=O)N(c2ccc(S(F)(F)(F)(F)F)cc2)C[C@@H]3C)ccn1")
"3.31e-09"
>>> value("COc1ccc(-c2cnn3c2C(=O)N(c2ccc(C(F)(F)F)cc2)C[C@@H]3C)cn1")
"4.68e-07"
>>> value("Cc1cc(-c2cnn3c2C(=O)N(c2ccc(F)cc2)C[C@@H]3C)ccn1")
"2.4e-07"
>>> value("C[C@H]1CN(c2ccc(C(F)(F)F)c(Cl)c2)C(=O)c2c(-c3ccnc(N4CC(F)C4)c3)cnn21")
"2.95e-09"
>>> value("C[C@H]1CN(c2ccc(S(F)(F)(F)(F)F)cc2)C(=O)c2c(-c3ccncc3)cnn21")
"1.62e-08"
>>> value("Cc1cc(-c2cnn3c2C(=O)N(c2ccc(C4CC4)cc2)C[C@@H]3C)ccn1")
"5.62e-08"
>>> value("Cc1cc(-c2cnn3c2C(=O)N(c2ccc4c(c2)OCCO4)C[C@@H]3C)ccn1")
"3.09e-06"
>>> value("Cc1cc(-c2cnn3c2C(=O)N(c2cccc(OC(F)(F)F)c2)C[C@@H]3C)ccn1")
"2.19e-08"
>>> value("Cc1cc(-c2cnn3c2C(=O)N(c2ccc(C(F)(F)F)cc2)C[C@@H]3C)cnc1C")
"2.29e-07"
